# System: HOP-62 NSCLC
# Measurement Protocol: NCI-60 one-dose screen, 48 h
# Condition Details: 10 µM unless noted
This is part of a sample that, as a whole, favours compounds with a hit. Of some 83,000 tested, about 20% had one in any assay. The source made the active and inactive calls. How the source made its calls: active means growth percent below 10; inactive means the rest.
The reply should be one of these categories: active, inactive

1. c1csc(-c2cnc3nonc3n2)c1 ... inactive
2. C=CCN(CC#N)CC=C ... inactive
3. C=C(C)[C@@H]1CC[C@]2(C(=O)NS(=O)(=O)c3ccccc3)CC[C@]3(C)[C@H](CC[C@@H]4[C@@]5(C)CC[C@H](OC(=O)NS(=O)(=O)c6ccccc6)C(C)(C)[C@@H]5CC[C@]43C)[C@@H]12 ... active

Entry `CCCCCCCCN=C(NCCCCCCCC)SCc1cccc2ccccc12` : call = ? active

# fetch the recorded call for CCOC(=O)C1C(=O)C=C(c2ccccc2)CC1c1sc(N(C)Cc2ccccc2)nc1Cl (stereo not given) here inactive

Hello, the source for this data is PubChem BioAssay (NCI), in case you need it.
